The origin of these recorded values is ChEMBL document CHEMBL5053492.

Target: Nuclear receptor ROR-gamma (Homo sapiens, UniProt P51449)
Sequence (P51449 whole entry): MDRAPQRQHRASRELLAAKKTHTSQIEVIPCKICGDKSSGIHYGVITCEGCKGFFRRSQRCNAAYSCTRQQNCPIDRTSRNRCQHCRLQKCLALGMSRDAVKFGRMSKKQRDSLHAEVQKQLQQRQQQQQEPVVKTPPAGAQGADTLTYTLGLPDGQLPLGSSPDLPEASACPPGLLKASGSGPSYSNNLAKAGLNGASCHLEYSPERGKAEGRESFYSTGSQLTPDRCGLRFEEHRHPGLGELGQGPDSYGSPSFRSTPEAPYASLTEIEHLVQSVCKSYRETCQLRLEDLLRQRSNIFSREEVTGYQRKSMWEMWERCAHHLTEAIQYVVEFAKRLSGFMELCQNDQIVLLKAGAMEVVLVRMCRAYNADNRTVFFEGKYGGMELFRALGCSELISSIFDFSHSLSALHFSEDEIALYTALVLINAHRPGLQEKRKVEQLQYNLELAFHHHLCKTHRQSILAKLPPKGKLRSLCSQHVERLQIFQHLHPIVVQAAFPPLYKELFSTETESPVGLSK
Assay: Agonist activity at human RORgammat LBD expressed in HEK293T cells assessed as increase in Gal4 reporter gene transcription measured after 16 to 20 hrs by luciferase reporter gene assay
Format: cell-based
MEASURE: EC50 (nM)

{"SMILES_REPR": "CCCN(Cc1ccc(NC(=O)Cc2ccc(S(C)(=O)=O)cc2)cc1)CC1CCCCC1", "ENDPOINT_VALUE": 277}
{"SMILES_REPR": "CCCN(Cc1c(Cl)cc(NC(=O)Cc2ccc(S(C)(=O)=O)cc2)cc1Cl)CC1CCCCC1", "ENDPOINT_VALUE": 382}
{"SMILES_REPR": "CCCN(Cc1ccc(NC(=O)Cc2ccc(S(C)(=O)=O)cc2)cc1Cl)CC1CCCCC1", "ENDPOINT_VALUE": 283}
